# Tested on: DMS-273
# test: NCI tumour cell line growth inhibition, 48 h
The source made the active and inactive calls. Rule as the data show it: active = GI50 up to about 1.1 µM and inactive = higher.
Form entry, call: pick from 1 for active, 0 for inactive

Answered cases to consult:
-- ask Any idea what this test logged for NCCOCCOCC(=O)O ?
-- reply 0

-- ask Any idea what this test logged for CC1(C)NC(=O)N(CCCCCCN2C(=O)NC(C)(C)C2=O)C1=O ?
-- reply 0

-- ask Any idea what this test logged for COc1ccc(C[P+]2(c3ccccc3)CCCCC2)cc1.O=[N+]([O-])c1ccc(C[P+]2(c3ccccc3)CCCCC2)cc1.[O-][Cl+3]([O-])([O-])[O-].[O-][Cl+3]([O-])([O-])[O-] ?
-- reply 0

-- ask Any idea what this test logged for S=C(N/N=C/c1ccccc1)NC1CC(c2ccccc2)Oc2ccccc21 (stereo not given) ?
-- reply 0

-- ask Any idea what this test logged for COc1cccc(NC(=O)CSc2nnc(Cc3ccccc3)o2)c1 ?
-- reply 0

Proceed to the following item.
-- ask Any idea what this test logged for CC12Oc3ccc4ccccc4c3CC1Cc1c(ccc3ccccc13)O2 (stereo not given) ?
-- reply 0

====

# System: OVCAR-5
# test: NCI tumour cell line growth inhibition, 48 h
The source made the active and inactive calls. Rule as the data show it: active = GI50 up to about 1.1 µM and inactive = higher.
attribute measured: GI50

Record OCC(O)COc1ccc(Br)cc1 (stereo unspecified) , field GI50: > 100 µM (inactive)

Record CCC1=NC(N/N=C/c2ccco2)=N/C1=C\c1ccccc1O , field GI50: 78.7 µM (inactive)

---
Record CCOP(=O)(OCC)C(Nc1ccc(F)cc1)c1cccc([N+](=O)[O-])c1 (stereo unspecified) , field GI50: > 100 µM (inactive)

Record CNNC1=NS(=O)(=O)c2cc(C)c(Cl)cc2S1 , field GI50: > 10 µM (inactive)

Record Cc1ccc(F)c2[nH]c(-c3ccccc3)cc(=O)c12 , field GI50: 9.1 µM (inactive)

Record CCOC(=O)N1N(c2ccccc2)C(=O)C1(c1ccccc1)c1ccccc1 , field GI50: > 100 µM (inactive)

====

# System: SNB-75
# test: NCI tumour cell line growth inhibition, 48 h
The source made the active and inactive calls. Rule as the data show it: active = GI50 up to about 1.1 µM and inactive = higher. Where a SMILES comes first, the peptide text is derived from it. [ ]: non-standard residue; d: D form. The star is where a group is joined. Iva = CC[C](C)(N)C(=O)O; Boc = CC(C)(C)OC(=O)*; X54 = C1CCC(=NO*)C1
compounds and their reported GI50

Bench note, SNB-75: entry CCC(C)(NC(=O)C(C)NC(=O)OC(C)(C)C)C(=O)NC(C)C(=O)NC(C)(CC)C(=O)ON=C1CCCC1 (centres undefined) (Boc-A[Iva]A[Iva]-X54; configuration not given here) , its GI50 = > 100 µM (inactive)

Bench note, SNB-75: entry COc1cc(NCc2ccc3nc(N)nc(N)c3c2C)cc(OC)c1OC , its GI50 = 4.37 µM (inactive)

Bench note, SNB-75: entry CCOC(=O)C1Cc2ccc3c4c(ccc(c24)C1)CC(C(=O)OCC)C3 , its GI50 = > 100 µM (inactive)

Kindly review the next compound as well.
Bench note, SNB-75: entry N#Cc1sc2c(c1OC(=O)c1cccs1)c(=O)n(-c1ccccc1)c(=S)n2-c1ccccc1 , its GI50 = 38.7 µM (inactive)

====

compounds and their reported GI50
# Tested on: SF-539
# test: NCI tumour cell line growth inhibition, 48 h
The source made the active and inactive calls. Cut-off read from the data, not from the text of the source: active = GI50 up to about 1.1 µM and inactive = higher.

In the examples that follow, each entry is paired with its recorded GI50.
Record COc1ccc(/C=C/C(=O)N[C@@H]2C(=O)N3[C@@H]2SC(C)(C)[C@@H]3C(=O)O)cc1OC , field GI50: > 100 µM (inactive)

Record CC1(C)CC(=O)C2=C(C1)OC1(CC2c2ccc(Cl)cc2)CC(c2ccc(Cl)cc2)C2=C(CC(C)(C)CC2=O)O1 (stereo unspecified) , field GI50: 20.5 µM (inactive)

Record O=C(/C=N/O)Nc1cc(Cl)c(Cl)cc1Cl , field GI50: 31.6 µM (inactive)

Record C/C(=N\NC(=[Se])N1CCN(c2ccccn2)CC1)c1ccccn1 , field GI50: 2.51 µM (inactive)

Record CCOC(=O)Nn1c(C)nnc1CC#N , field GI50: > 100 µM (inactive)

Record O=C(CC1C(=O)c2ccccc2C1=C1C(=O)c2ccccc2C1=O)c1ccccc1 (stereo unspecified) , field GI50: > 100 µM (inactive)

---
Record CC(=O)NC1C(OC2C(CO)OC(OCC3OC(n4ccc(N)nc4=O)C(O)C3O)C(NC(C)=O)C2O)OC(CO)C(O)C1O (stereo unspecified) , field GI50: > 100 µM (inactive)

Record C=C(C)[C@@H]1CCC2=C[C@@H](OC2=O)[C@@H](C(=C)C)C2=CC(C(=O)O)=C(C1)O2 , field GI50: > 100 µM (inactive)

Record CC1(C)CC(=O)c2c([nH]c(=S)c(C#N)c2-c2ccc(Br)cc2)C1 , field GI50: 67.5 µM (inactive)

Record Cc1occc1C(=S)Nc1ccc(Cl)c(C(=O)OCC(C)C)c1 , field GI50: 22.3 µM (inactive)

Record O=C(O)Cc1ccc(Oc2nc3ccccc3nc2-c2ccccc2)cc1 , field GI50: 60.5 µM (inactive)
